Form field: %Inh (one value per entry).
Tested on: MAP3K3;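 also: KINOMEscan kinase panel screen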
testSettings: concentration: 1 μM, replicates: in singlicate; n = 1

compound	measurementUnit	%Inh
COc1ccc(Nc2ncc(C#N)c(Nc3ccccc3C(N)=O)n2)cc1N1CCN(C)CC1.Cl [GSK1558669]	%	99.8
c1ccc(-c2n[nH]cc2-c2ccnc3ccccc23)nc1 [GW271431]	%	0
O=C1Cc2cc(Nc3nc(NCc4cccc(S(=O)(=O)C(F)(F)F)c4)ncc3C(F)(F)F)ccc2N1	%	0
NS(=O)(=O)c1cccc(-c2ccc3ncc(N4CCOCC4)nc3c2)c1 [GSK1535721]	%	0
COc1ccc(CNC(=O)NC2CCN(c3ccnc(Nc4ccc(OC)cc4)n3)C2)cc1 (centres unmarked) [GSK1379727]	%	0
COc1cc(Nc2nccc(N3CCC(NC(=O)c4cccc(NC(C)=O)c4)C3)n2)cc(OC)c1OC (centres unmarked) [GSK1379754]	%	0
O=c1cc(N2CCOCC2)nc2n(Cc3cccc(C(F)(F)F)c3)ccn12 [GSK2297543]	%	0
O=C1NC(=O)C(N2CCc3ccccc32)=C1c1cccc(Cl)c1 [SB-408010]	%	22
CN1c2ccc(CNc3ccc(F)cc3)cc2-c2c(cnn2C)S1(=O)=O	%	25
CN1c2ccc(NCc3ccc(F)cc3)cc2-c2c(cnn2C)S1(=O)=O	%	5
c1ccc(-c2cc(-c3c[nH]nc3-c3ccccn3)ccn2)cc1 [GW576604]	%	0
CCc1nc(-c2cccc(C)c2)c(-c2ccnc(NCc3ccccc3)c2)s1	%	0
CN(C1=C(c2ccccc2)C(=O)NC1=O)c1ccccc1 [SB-334860]	%	0
NS(=O)(=O)c1cccc(-c2ccc3nccc(-c4cccc(S(N)(=O)=O)c4)c3c2)c1 [GW867253]	%	0
CN(C(=O)c1ccc(-c2cc(-c3c[nH]nc3-c3ccccn3)ccn2)cc1)C1CCOCC1 [GW810083]	%	0
CCCCCc1nc2c(N)ncnc2n1CCCCC [SKF-97255]	%	0
O=C(NOCC1CC1)c1ccc(F)c(F)c1Nc1ccc(I)cc1Cl	%	0
N#Cc1ccc(-c2cc(-c3c[nH]nc3-c3ccccn3)ccn2)cc1 [GW693028]	%	0
Cl.Oc1cccc(Nc2ccnc3cc(-c4ccncc4)ccc23)c1 [GW494601]	%	70
NCC(NC(=O)c1cc(-c2cn[nH]c2)c(-c2ccnc3[nH]ccc23)s1)c1ccccc1.O=C(O)C(F)(F)F.O=C(O)C(F)(F)F (centres unmarked) [GSK1325775]	%	0
O=C(Nc1cccc(-c2nn3ncccc3c2-c2ccnc(Nc3cccc(C(F)(F)F)c3)n2)c1)c1c(F)cccc1F [GSK299495]	%	0
Cc1nnc(-c2ccc3occ(-c4ccc(C(C)O)cc4)c3c2)o1 (centres unmarked)	%	19
COCCNC(=O)c1ccc(-c2cc(C(=O)NC3CC3)cc(F)c2C)cc1 [GW868318]	%	28
O=C(NCCCN1CCOCC1)c1cccc(Nc2nccc(Nc3ccc(Oc4ccccc4)cc3)n2)c1 [GW663929]	%	0
COc1cc2c(cc1OC[C@@H](O)CO)ncc1c3ccc(C#N)cc3[nH]c21	%	6
Cl.Nc1ncnc2occ(-c3ccc(NC(=O)Nc4cc(C(F)(F)F)ccc4F)cc3)c12 [SB-707548]	%	17
